# assay_target: D(3) dopamine receptor (Rattus norvegicus)
# Sequence (P19020 whole entry): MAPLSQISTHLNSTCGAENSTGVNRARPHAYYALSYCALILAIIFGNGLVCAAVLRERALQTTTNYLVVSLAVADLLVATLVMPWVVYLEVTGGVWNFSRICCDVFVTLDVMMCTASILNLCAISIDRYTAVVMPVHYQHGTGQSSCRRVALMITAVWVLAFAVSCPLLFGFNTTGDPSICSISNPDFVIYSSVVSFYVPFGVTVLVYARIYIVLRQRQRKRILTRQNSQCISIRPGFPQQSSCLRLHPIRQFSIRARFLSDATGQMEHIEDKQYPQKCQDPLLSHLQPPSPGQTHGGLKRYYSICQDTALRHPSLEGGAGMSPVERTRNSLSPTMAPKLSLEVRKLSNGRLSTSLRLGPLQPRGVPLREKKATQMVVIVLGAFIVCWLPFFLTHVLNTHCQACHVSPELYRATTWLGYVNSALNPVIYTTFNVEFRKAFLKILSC
parameter: pKi
Please treat pKi as minus the base-10 logarithm of the molar concentration.

Asked: Find the measured pKi of CCCN(CCN1CCN(C(=O)c2cc3ccccc3o2)CC1)C1CCc2c(O)cccc2C1 (configuration not stated) and report it.
Given back: 8.28

Asked: Find the measured pKi of CCCN(CCN1CCN(Cc2cc3ccccc3[nH]2)CC1)C1CCc2ccc(O)cc2C1 (configuration not stated) and report it.
Given back: 8.32

---

# assay_target: D(2) dopamine receptor (Rattus norvegicus, UniProt P61169)
# Sequence (P61169 whole entry): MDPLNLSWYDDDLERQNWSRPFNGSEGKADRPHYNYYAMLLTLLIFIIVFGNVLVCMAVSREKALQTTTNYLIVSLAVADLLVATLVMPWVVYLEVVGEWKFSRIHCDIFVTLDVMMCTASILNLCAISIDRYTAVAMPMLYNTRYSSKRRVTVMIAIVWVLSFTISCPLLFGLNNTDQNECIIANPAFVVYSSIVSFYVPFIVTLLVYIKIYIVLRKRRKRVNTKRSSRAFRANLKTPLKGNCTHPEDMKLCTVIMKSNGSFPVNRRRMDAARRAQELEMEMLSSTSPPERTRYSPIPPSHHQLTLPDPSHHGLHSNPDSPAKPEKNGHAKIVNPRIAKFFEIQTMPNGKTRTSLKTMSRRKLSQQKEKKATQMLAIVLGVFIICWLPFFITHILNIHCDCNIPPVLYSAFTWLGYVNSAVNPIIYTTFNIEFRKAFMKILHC
# experiment_notes: Displacement of [3H]spiperone from rat dopamine D2L receptor expressed in HEK293 cells
# Format: cell-based
parameter: pKi
Please treat pKi as minus the base-10 logarithm of the molar concentration.

Asked: Find the measured pKi of CCCN(CCN1CCN(C(=O)c2cc3ccccc3o2)CC1)C1CCc2c(O)cccc2C1 (configuration not stated) and report it.
Given back: 6.88

Asked: Find the measured pKi of CCCN(CCN1CCN(Cc2cc3ccccc3[nH]2)CC1)C1CCc2ccc(O)cc2C1 (configuration not stated) and report it.
Given back: 7.00
